Recorded values, source patent US11655216B2.

Target: glutathione-S-transferase (GST) tagged LXRalpha LBD (ligand binding domain) (Homo sapiens, UniProt Q13133)
Construct: purchased Invitrogen pv4655
Sequence (Q13133 209-447 limits assumed): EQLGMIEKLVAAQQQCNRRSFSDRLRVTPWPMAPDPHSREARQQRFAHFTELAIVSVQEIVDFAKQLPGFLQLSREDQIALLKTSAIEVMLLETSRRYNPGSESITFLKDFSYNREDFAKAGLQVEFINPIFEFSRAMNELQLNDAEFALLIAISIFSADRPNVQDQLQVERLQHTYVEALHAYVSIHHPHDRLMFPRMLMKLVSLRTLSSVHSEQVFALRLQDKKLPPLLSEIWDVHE
Experiment: biochemical
Settings: LXR alpha IP, potency (Inflection Point), compound-induced co-activator recruitment, TR-FRET
Procedure: While running the LanthaScreen™ TR-FRET Liver X Receptor Coactivator Assay, LXR alpha-LBD or LXR beta-LBD was added to ligand test compounds followed by addition of a mixture of a fluorescein-labelled coactivator peptide and terbium-conjugated anti-GST antibody. After an incubation period at room temperature, TR-FRET (time-resolved fluorescence resonance energy transfer) was measured using a filter-based instrument capable of TR-FRET, e.g. PerkinElmer Envision.
assayReadout: EC50 (nM)

compound	unitsSymbol	EC50
CNC(=O)c1ccc(OCCCCC2CCN(C(=O)[C@](O)(c3cccc(OC)c3)C(F)(F)F)CC2)cc1Cl (single isomer, unassigned)	nM	742

[1] CN(C(=O)c1ccc(OCCCCC2CCN(C(=O)[C@](O)(c3ccccc3)C(F)(F)F)CC2)cc1Cl)C1COC1 (single isomer, unassigned)
[2] CN(C)C(=O)c1ccc(OCCC2CC23CCN(S(=O)(=O)C(C)(C)c2ccccc2)CC3)cc1Cl (single isomer, unassigned)
[in] Returns the identifier with the smallest measured EC50 among 1 and 2 . Your answer should be the label of the entry you select.
[out] 1
